B1: CPEB3 Ribozyme (parent)
chain: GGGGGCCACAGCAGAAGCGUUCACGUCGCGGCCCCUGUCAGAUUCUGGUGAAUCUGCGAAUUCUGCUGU

variants of: B1; assay: self-cleavage, relative activity (ratio to wild type); higher = more cleavage; co-transcriptional
# binning rule on self-cleavage: bottom range (below 0.3), center range (0.3 to below 0.7), top range (0.7 or more)

stdin: Band assignment needed for G3A A23G please.
stdout: center range

stdin: Band assignment needed for A52G G56A please.
stdout: top range

stdin: Band assignment needed for U21G C66A please.
stdout: bottom range

stdin: Band assignment needed for U44A G58C please.
stdout: top range

stdin: Band assignment needed for C24A G50C please.
stdout: center range

stdin: Band assignment needed for G41A A59C please.
stdout: center range

Kindly consider the entry below.
stdin: Band assignment needed for A8G G56U please.
stdout: center range
